Each entry below lists one item and its recorded IC50 value.
System: human P-glycoprotein HEK cells (HEK-P-gp)
Test: H3K27me3 immunocytochemistry assay in P-gp expressing HEK293T cells, with or without elacridar
Type: cell-based
Conditions: Homo sapiens, HEK293, 96 h, without elacridar; 4 days compound treatment; read-out: IC50, inhibitory activity on human P-glycoprotein HEK cells (HEK-P-gp)

{"compound": "Cn1ncc(C#N)c1-c1cc2c(n3cnnc13)NCc1c(F)ccc3c1C(CO3)CO2 (centres unmarked)", "IC50": "100 to 500 nM"}
{"compound": "CC(=O)N1CCC(c2cc3c(n4cnnc24)NCc2cccc4c2[C@@H](CO4)CO3)CC1", "IC50": "> 500 nM"}
{"compound": "CC(=O)N1CC=C(c2cc3c(n4cnnc24)NCc2c(F)ccc4c2[C@@H](CO4)CO3)CC1", "IC50": "25 to 50 nM"}
{"compound": "Cc1cncnc1-c1cc2c(n3cnnc13)NCc1c(F)ccc3c1[C@@H](CO3)CO2", "IC50": "25 to 50 nM"}
{"compound": "Cc1cc(C#N)ccc1-c1cc2c(n3cnnc13)NCc1c(F)ccc3c1[C@H](CO3)CO2", "IC50": "25 to 50 nM"}
{"compound": "Cn1cc(Cc2cc3c(n4cnnc24)NCc2c(F)cccc2COC3)cn1", "IC50": "> 500 nM"}
{"compound": "Fc1ccc2c3c1CNc1c(cc(-c4ccc(C(F)(F)F)nc4)c4nncn14)OC[C@H]3CO2", "IC50": "100 to 500 nM"}
{"compound": "Fc1ccc2c3c1CNc1c(cc(-c4ccc(N5CCOCC5)nc4)c4nncn14)OC[C@H]3CO2", "IC50": "> 500 nM"}
